tested on: HCMV Strain AD169 in MRC-5 cells; assay: Viral qPCR assay HCMV (V0/V1, V2/V3), EC50; assay type: cell-based; settings: Human betaherpesvirus 5, AD169, MRC5, viral qPCR assay of Example 191; read-out: HCMV Cell (EC50)
Measured pEC50 values are reported for all entries that follow.
For clarity, pEC50 is expressed as the negative log10 of concentration in mol/L.

Look over these answered cases.
CC1(O)CCN(Cc2cnc(C(=O)NCc3ccc(Cl)cc3)cc2O[C@H]2CCN3C(=O)OC[C@@H]3C2)C1 (mixture of isomers): 5.71
O=C(NCc1ccc(Cl)cc1)c1cc(O[C@H]2CCN3C(=O)OC[C@@H]3C2)c(CO)cn1: 6.29
CC(C)[C@H](N)C(=O)OCN(Cc1ccc(Cl)cc1)C(=O)c1cc(O[C@H]2CCN3C(=O)OC[C@@H]3C2)c(-c2cnn(C(F)F)c2)cn1: 6.90
O=C(NCc1ccc(Cl)c(F)c1)c1cc(O[C@H]2CCN3C(=O)OC[C@@H]3C2)c(-c2cnn(C(F)F)c2)cn1: 6.99
CN1CCC(C(=O)OCN(Cc2ccc(Cl)cc2)C(=O)c2cc(O[C@H]3CCN4C(=O)OC[C@@H]4C3)c(-c3cnn(C(F)F)c3)cn2)CC1: 6.83

### Prompt What value of pEC50 has been recorded for this entry: CC(=O)N1CCC(Oc2cc(C(=O)NCc3ccc(Cl)cc3)ncc2-c2cnn(C(F)F)c2)CC12CC2 (stereo not shown)
### Response 5.85

### Prompt What value of pEC50 has been recorded for this entry: O=C(NCc1ccc(Cl)cn1)c1cc(O[C@H]2CCN3C(=O)OC[C@@H]3C2)c(-c2cnn(C(F)F)c2)cn1
### Response 5.98

* * *

Human cytomegalovirus DNA polymerase (Human cytomegalovirus, UniProt P08546) data, read-out log10(IC50)
Sequence (P08546 whole entry): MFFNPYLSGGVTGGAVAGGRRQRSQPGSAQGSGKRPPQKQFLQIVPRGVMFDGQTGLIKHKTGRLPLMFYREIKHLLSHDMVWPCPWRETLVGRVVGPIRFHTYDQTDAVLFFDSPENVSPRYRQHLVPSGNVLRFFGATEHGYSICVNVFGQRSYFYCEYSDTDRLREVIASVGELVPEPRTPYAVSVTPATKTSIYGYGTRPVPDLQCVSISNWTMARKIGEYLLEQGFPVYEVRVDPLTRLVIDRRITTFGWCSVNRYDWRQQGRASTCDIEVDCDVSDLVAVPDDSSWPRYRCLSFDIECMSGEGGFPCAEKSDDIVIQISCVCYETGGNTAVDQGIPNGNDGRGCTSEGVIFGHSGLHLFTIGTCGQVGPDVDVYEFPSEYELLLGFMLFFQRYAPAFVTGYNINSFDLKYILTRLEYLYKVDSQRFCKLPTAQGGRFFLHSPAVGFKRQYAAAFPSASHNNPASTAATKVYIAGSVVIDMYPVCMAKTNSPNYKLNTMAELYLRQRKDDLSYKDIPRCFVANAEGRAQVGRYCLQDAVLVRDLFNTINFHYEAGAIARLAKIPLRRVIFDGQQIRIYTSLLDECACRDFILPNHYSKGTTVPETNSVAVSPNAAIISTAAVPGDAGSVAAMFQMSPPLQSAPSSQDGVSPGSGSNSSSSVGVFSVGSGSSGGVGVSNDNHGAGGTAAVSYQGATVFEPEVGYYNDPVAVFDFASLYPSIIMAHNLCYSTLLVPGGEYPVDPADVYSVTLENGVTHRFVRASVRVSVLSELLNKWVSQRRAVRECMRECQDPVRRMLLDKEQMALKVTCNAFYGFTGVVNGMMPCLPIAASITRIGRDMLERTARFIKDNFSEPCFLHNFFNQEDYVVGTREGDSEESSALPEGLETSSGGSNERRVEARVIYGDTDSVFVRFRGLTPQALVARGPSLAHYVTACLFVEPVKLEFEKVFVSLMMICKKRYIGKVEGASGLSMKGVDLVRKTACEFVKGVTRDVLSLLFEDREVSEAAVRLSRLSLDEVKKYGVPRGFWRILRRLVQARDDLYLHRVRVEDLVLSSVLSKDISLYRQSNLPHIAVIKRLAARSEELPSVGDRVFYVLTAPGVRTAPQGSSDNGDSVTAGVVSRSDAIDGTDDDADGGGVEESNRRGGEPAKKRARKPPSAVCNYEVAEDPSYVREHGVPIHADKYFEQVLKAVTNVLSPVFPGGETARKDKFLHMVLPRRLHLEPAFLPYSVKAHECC
Lab note - IC50 converted to log10 from values in nM.

O=C(NCc1ccc(Cl)c(F)c1)c1cc(O[C@H]2CCN3C(=O)OC[C@@H]3C2)c(-c2cnn(C(F)F)c2)cn1: 0.84
C[C@@H]1CN(c2cnc(C(=O)NCc3ccc(Cl)cc3)cc2O[C@H]2CCN3C(=O)OC[C@@H]3C2)C[C@H](C)[C@]1(C)O: 2.24
O=C(NCc1ccc(Cl)cc1)c1cc(O[C@H]2CCN3C(=O)OC[C@@H]3C2)c(OCC(F)(F)F)cn1: 1.41
Cn1cc(-c2cnc(C(=O)NCc3ccc(Cl)cc3)cc2O[C@H]2CCN3C(=O)OC[C@@H]3C2)cn1: 0.97

### Prompt Entry O=C(NCc1ccc(Cl)cc1)c1cc(O[C@H]2CCN3C(=O)OC[C@@H]3C2)cc(CO)n1 , system Human cytomegalovirus DNA polymerase (Human cytomegalovirus, UniProt P08546): what log10(IC50) was measured?
### Response 2.30

### Prompt Entry O=C(NCc1ccc(Cl)cc1)c1cc(O[C@H]2CCN3C(=O)OC[C@@H]3C2)c(-c2cnn(CC(F)(F)F)c2)cn1 , system Human cytomegalovirus DNA polymerase (Human cytomegalovirus, UniProt P08546): what log10(IC50) was measured?
### Response 1.36

### Prompt Entry Cn1cc(-c2cnc(C(=O)NCc3ccc(C#N)cc3)cc2O[C@H]2CCN3C(=O)OC[C@@H]3C2)cn1 (racemic) , system Human cytomegalovirus DNA polymerase (Human cytomegalovirus, UniProt P08546): what log10(IC50) was measured?
### Response 1.59
